- Tgt: BSA (Bos taurus, UniProt P02769)
- Construct: purchased HiMedia (Mumbai, India)
- Sequence (P02769 25-607): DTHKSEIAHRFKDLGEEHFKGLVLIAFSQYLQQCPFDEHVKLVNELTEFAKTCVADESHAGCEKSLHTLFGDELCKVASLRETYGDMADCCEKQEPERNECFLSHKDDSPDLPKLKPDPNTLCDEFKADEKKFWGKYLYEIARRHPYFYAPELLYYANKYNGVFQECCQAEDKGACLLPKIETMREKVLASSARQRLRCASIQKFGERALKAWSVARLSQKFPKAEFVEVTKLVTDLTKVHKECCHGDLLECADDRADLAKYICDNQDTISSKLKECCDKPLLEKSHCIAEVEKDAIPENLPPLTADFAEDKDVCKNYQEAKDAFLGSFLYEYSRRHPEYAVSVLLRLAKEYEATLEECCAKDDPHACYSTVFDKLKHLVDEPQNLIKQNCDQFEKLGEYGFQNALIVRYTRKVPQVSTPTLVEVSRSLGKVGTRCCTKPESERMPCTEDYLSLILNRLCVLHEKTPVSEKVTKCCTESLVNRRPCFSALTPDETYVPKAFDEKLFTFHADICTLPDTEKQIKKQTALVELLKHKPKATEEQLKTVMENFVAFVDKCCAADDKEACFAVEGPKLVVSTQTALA
- Assay Summary: Three-dimensional fluorescence spectra of BSA
- Format: binding, bovine
- Measurement Context: BSA 10 μM + compound 10 μM, pH 7.4, 298 K

| Molecule | Rayleigh scattering peaks Intensity (F) |
| --- | --- |
| CNC1=N[N+]2=C(C)c3[c](c4ccc(OC)cc4oc3=O)[Ru-4]2([C]#[O+])([P+](c2ccccc2)(c2ccccc2)c2ccccc2)([P+](c2ccccc2)(c2ccccc2)c2ccccc2)[S]1 [Complex 2, [Ru(7MAC-mtsc)(CO)(PPh3)2]] | 837.83 |
| COc1ccc2[c]3c(c(=O)oc2c1)C(C)=[N+]1N=C(Nc2ccccc2)[S][Ru-4]31([C]#[O+])([P+](c1ccccc1)(c1ccccc1)c1ccccc1)[P+](c1ccccc1)(c1ccccc1)c1ccccc1 [Complex 4, [Ru(7MAC-ptsc)(CO)(PPh3)2]] | 741.59 |
| COc1ccc2[c]3c(c(=O)oc2c1)C(C)=[N+]1N=C(N)[S][Ru-4]31([C]#[O+])([P+](c1ccccc1)(c1ccccc1)c1ccccc1)[P+](c1ccccc1)(c1ccccc1)c1ccccc1 [Complex 1, [Ru(7MAC-tsc)(CO)(PPh3)2]] | 867.32 |
| CCNC1=N[N+]2=C(C)c3[c](c4ccc(OC)cc4oc3=O)[Ru-4]2([C]#[O+])([P+](c2ccccc2)(c2ccccc2)c2ccccc2)([P+](c2ccccc2)(c2ccccc2)c2ccccc2)[S]1 [Complex 3, [Ru(7MAC-etsc)(CO)(PPh3)2]] | 958.23 |

# credit: paper PMC9077138
